Target: T1, human NK1 receptor (human, UniProt P25103)
T1 chain: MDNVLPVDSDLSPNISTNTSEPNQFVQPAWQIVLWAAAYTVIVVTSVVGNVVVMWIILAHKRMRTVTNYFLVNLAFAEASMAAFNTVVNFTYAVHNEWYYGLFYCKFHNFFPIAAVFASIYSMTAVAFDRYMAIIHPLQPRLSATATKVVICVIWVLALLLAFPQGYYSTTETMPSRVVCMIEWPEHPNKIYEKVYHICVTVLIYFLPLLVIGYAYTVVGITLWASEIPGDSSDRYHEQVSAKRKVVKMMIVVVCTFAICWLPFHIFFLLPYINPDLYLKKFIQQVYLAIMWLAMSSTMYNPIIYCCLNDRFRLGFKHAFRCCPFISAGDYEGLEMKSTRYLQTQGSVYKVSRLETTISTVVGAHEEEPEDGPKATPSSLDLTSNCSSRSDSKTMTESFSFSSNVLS
Assay: competition
Non-standard residues stand in square brackets, D forms with d. No end group written: not given here. *: point of attachment. NH(3,5-(CF3)2-benzyl) = FC(F)(F)c1cc(CN*)cc(C(F)(F)F)c1; NMeF = CN[C@@H](Cc1ccccc1)C(=O)O
Mark t only for Ki values smaller than 3 nM; exact matches and larger values are f.

Below, 7 binders whose answers are already recorded.
Request: Is the reported Ki for Y[dA]G[NMeF]PLW-{NH(3,5-(CF3)2-benzyl)} [AKG117] strictly below 3 nM?
Result: f

Request: Is the reported Ki for XAGFPLW (Dmt1, D-Ala2, NMeGly3; C-terminal NH-Bn(3',5'-(CF3)2)) [AKG180] strictly below 3 nM?
Result: t

Request: Is the reported Ki for XAGFPLW (Dmt1, D-NMeAla2; C-terminal NH-Bn(3',5'-(CF3)2)) [AKG181] strictly below 3 nM?
Result: f

Request: Is the reported Ki for XAGFPLW (Dmt1, D-Ala2, Phe(4-F)4; C-terminal NH-Bn(3',5'-(CF3)2)) [AKG127] strictly below 3 nM?
Result: t

Request: Is the reported Ki for XAGFPLW (Dmt1, D-Ala2, NMePhe(4-F)4; C-terminal NH-Bn(3',5'-(CF3)2)) [AKG128] strictly below 3 nM?
Result: t

Request: Is the reported Ki for XAGFPLW (Dmt1, D-Ala2, Phe(4-Br)4; C-terminal NH-Bn(3',5'-(CF3)2)) [AKG192] strictly below 3 nM?
Result: t

Request: Is the reported Ki for XAGFPLW (Dmt1, D-NMeAla2, NMeGly3; C-terminal NH-Bn(3',5'-(CF3)2)) [AKG183] strictly below 3 nM?
Result: t

Read the next record carefully.
Request: Is the reported Ki for XAGFPLW (Dmt1, D-Ala2, NMeGly3, NMePhe4; C-terminal NH-Bn(3',5'-(CF3)2)) [AKG182] strictly below 3 nM?
Result: f
